# target-of-assay: T1, human CD33 Fc fusion protein (human, UniProt P20138 18-259)
# T1 construct: also called hCD33-Fc; human CD33/Fc chimera (R&D Systems)
# T1 sequence (P20138 18-259 limits assumed): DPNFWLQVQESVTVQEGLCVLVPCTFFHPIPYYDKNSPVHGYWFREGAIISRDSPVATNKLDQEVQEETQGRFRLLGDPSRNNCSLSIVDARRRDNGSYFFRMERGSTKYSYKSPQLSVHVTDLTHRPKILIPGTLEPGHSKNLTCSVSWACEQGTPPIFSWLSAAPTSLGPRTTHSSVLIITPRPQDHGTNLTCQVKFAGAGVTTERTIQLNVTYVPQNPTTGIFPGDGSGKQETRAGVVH
# method-description: RBC adhesion to plate-bound CD33-Fc; antibody 0.5 ug/ml;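 also: Plate-coated CD33-Fc preincubated 1 h with antibody, then red blood cells added for 1 h at room temperature, adherent cells lysed and quantified via peroxidase activity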
Please assign condition not met whenever Percent RBC Binding to CD33 is at or above 20%, and condition met whenever it is below.

# count of solved cases: 4
| binder | group |
| --- | --- |
| C-11 (antibody, V domains shown, human IgG1) VH: QVQLVQSGAEVKKPGSSVKVSCKASGGTFSNYAISWVRQAPGQGLEWMGGIIPIFGTANYAQKFQGRVTITADESTSTAYMELSSLRSEDTAVYYCARDTGTYVTGDGMDVWGQGTTVTVSS VL: EIVMTQSPATLSVSPGERATLSCRASQSVSSNLAWYQQKPGQAPRLLIYSASTRATGIPARFSGSGSGTEFTLTISSLQSEDFAVYYCQQYIVLPITFGGGTKVEIK | condition met |
| C-16 (antibody, V domains shown, human IgG1) VH: EVQLVESGGGLVQPGGSLRLSCAASGFTFSSYWMSWVRQAPGKGLEWVANINQDGSEKYYVDSVKGRFTISRDNAKNSLYLQMNSLRAEDTAVYYCAREGSDRHPFDYWGQGTLVTVSS VL: DIQMTQSPSSLSASVGDRVTITCRASQSISSYLNWYQQKPGKAPKLLIYAASSLQSGVPSRFSGSGSGTDFTLTISSLQPEDFATYYCQQAYLVPLTFGGGTKVEIK | condition met |
| C-65 (antibody, V domains shown, human IgG1) VH: QVQLVQSGAEVKKPGASVKVSCKASGYTFTSYYMHWVRQAPGQGLEWMGVINPSGGSTSYAQKFQGRVTMTRDTSTSTVYMELSSLRSEDTAVYYCARESQYYDVHGMDVWGQGTTVTVSS VL: DIQMTQSPSSLSASVGDRVTITCRASQSISSYLNWYQQKPGKAPKLLIYAASSLQSGVPSRFSGSGSGTDFTLTISSLQPEDFATYYCQQQYTLPPTFGGGTKVEIK | condition met |
| C-75 (antibody, V domains shown, human IgG1) VH: EVQLLESGGGLVQPGGSLRLSCAASGFTFSSYAMSWVRQAPGKGLEWVSAISASGGSTYYADSVKGRFTISRDNSKNTLYLQMNSLRAEDTAVYYCARLHMTGTASSGMDVWGQGTTVTVSS VL: DIVMTQSPDSLAVSLGERATINCKSSQSVLYSSNNKNYLAWYQQKPGQAPRLLIYGASSRATGIPDRFSGSGSGTDFTLTISRLEPEDFAVYYCQQDYSSPLTFGGGTKVEIK | condition not met |

Then this binder:
Q. Does the reported Percent RBC Binding to CD33 of the following binder sit strictly below 20%? C-39 (antibody, V domains shown, human IgG1) VH: QLQLQESGPGLVKPSETLSLTCTVSGGSISSSSYYWGWIRQPPGKGLEWIGSIYYSGSTYYNPSLKSRVTISVDTSKNQFSLKLSSVTAADTAVYYCAREGVRGMDVWGQGTTVTVSS VL: EIVLTQSPGTLSLSPGERATLSCRASQSVSSSYLAWYQQKPGQAPRLLIYGASSRATGIPDRFSGSGSGTDFTLTISRLEPEDFAVYYCQQFAFLPPTFGGGTKVEIK
A. condition met

FYI, the data here is from patent US20220281976A1.
